target: Mitogen-activated protein kinase 13 (Homo sapiens) (UniProt O15264); details: at 0.1 µM;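 further: reported value is the mean percent inhibition of p38delta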
Sequence (O15264 whole entry): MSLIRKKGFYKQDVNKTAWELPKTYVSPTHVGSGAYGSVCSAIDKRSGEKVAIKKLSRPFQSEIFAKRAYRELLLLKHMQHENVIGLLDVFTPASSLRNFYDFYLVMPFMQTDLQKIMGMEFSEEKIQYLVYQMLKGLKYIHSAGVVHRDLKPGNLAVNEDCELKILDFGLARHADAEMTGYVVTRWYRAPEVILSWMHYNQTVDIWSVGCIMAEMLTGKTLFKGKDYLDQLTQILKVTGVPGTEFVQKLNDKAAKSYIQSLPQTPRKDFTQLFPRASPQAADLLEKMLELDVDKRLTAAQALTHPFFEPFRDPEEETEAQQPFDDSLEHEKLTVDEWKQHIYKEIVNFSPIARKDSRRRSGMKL
measure: inhibition (%)
Express it in %; write the number only.

As a guide, the following entries are already answered.
{"columns": ["molecule", "unit-of-measure", "inhibition"],
 "data": [
  ["O=C1NC(=O)C(c2cccc(Cl)c2)=C1Nc1ccc(Cl)c(C(=O)O)c1", "%", 1.21],
  ["CCN(CC)Cc1ccc(Nc2nccc(-c3cnn4ncccc34)n2)cc1", "%", 4.71],
  ["NC(=O)c1cc(-c2ccc(F)cc2)cc(-c2ccncc2)c1N", "%", 2.57],
  ["Cc1ccc(C(=O)NC(C)C)cc1-c1ccc(C(=O)NCC2CC2)cc1", "%", -4.48],
  ["COc1cc2ncn(-c3cc(OCCc4ccccc4)c(C(N)=O)s3)c2cc1OC", "%", 4.25],
  ["O=C(Nc1n[nH]c2nc(-c3ccc(O)cc3)c(Br)cc12)C1CC1", "%", 8.19],
  ["COc1cc(N2CCN(C(C)C)CC2)ccc1Nc1nc(Nc2ccc(F)cc2C(=O)NC[C@@H](O)CO)c2cc[nH]c2n1", "%", -0.21],
  ["CN(c1ccc(NC(=O)Nc2c(Cl)cccc2Cl)cc1)c1ccnc(Nc2cccc(CS(C)(=O)=O)c2)n1", "%", 1.53],
  ["NS(=O)(=O)c1ccc(N/N=C2\\C(=O)Nc3ccc(C(=O)NCCCn4ccnc4)cc32)cc1", "%", 1.23],
  ["C/C(Nc1ccc(S(N)(=O)=O)cc1)=C1/C(=O)Nc2ccccc21", "%", -0.85]
]}

molecule COc1ccc2cc(-c3c(-c4ccncc4)nc(-c4ccc(S(C)(=O)=O)cc4C)n3C)ccc2c1 , inhibition observed: 2.15

molecule CCS(=O)(=O)c1ccc(OC)c(Nc2ncc(-c3ccccc3Cl)o2)c1 , inhibition observed: 1.24

molecule NS(=O)(=O)c1ccc(Nc2cc(-c3ccc(O)c(F)c3)n[nH]2)cc1 , inhibition observed: -6.82

====

target: Tyrosine-protein kinase JAK2 (Homo sapiens) (UniProt O60674); conditions: at 1 µM;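 further: mean JAK2 inhibition from the GSK PKIS screen, compounds tested at 1 µM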
Sequence (O60674 whole entry): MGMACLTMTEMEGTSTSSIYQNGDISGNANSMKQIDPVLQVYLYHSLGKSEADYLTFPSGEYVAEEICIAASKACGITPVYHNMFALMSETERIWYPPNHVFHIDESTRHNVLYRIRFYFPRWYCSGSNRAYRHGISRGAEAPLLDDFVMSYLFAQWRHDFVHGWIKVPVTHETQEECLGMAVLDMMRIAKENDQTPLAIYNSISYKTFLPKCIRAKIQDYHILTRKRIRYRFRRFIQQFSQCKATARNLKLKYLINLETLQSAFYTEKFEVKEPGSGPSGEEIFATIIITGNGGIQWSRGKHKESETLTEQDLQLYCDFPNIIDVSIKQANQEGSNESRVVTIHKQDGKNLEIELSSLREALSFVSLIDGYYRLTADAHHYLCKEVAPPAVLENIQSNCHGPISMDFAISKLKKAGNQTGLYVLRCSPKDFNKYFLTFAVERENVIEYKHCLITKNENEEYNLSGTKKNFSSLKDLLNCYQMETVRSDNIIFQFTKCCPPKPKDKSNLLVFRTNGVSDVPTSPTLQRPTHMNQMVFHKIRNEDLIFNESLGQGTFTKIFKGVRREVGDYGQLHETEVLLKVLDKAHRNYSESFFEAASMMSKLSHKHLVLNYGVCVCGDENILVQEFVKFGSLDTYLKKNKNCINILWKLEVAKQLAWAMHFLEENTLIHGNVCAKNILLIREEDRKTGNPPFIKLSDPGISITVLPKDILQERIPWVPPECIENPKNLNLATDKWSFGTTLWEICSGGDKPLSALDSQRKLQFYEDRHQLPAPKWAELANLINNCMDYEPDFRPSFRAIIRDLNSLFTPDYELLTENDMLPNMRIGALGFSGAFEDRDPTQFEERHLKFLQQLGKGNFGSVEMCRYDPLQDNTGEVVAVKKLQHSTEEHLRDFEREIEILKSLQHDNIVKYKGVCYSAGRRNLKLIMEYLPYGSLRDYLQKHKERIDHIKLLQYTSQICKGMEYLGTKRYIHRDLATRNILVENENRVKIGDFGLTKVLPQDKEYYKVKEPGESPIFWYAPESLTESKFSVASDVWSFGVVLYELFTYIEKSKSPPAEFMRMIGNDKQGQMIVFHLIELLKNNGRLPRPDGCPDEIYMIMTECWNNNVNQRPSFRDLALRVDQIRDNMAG
measure: inhibition (%)
Express it in %; write the number only.

As a guide, the following entries are already answered.
{"columns": ["structure-smiles-string", "target-system", "measure", "measured-result"],
 "data": [
  ["CCN(CC)Cc1ccc(Nc2nccc(-c3cnn4ncccc34)n2)cc1", "Tyrosine-protein kinase JAK2 (Homo sapiens) (UniProt O60674)", "inhibition", 20.9],
  ["COc1cc2ncn(-c3cc(OCc4cccs4)c(C(N)=O)s3)c2cc1OC", "Tyrosine-protein kinase JAK2 (Homo sapiens) (UniProt O60674)", "inhibition", 1.19],
  ["c1ccc(-c2n[nH]cc2-c2ccnc(-c3ccc(OCCN4CCOCC4)cc3)c2)nc1", "Tyrosine-protein kinase JAK2 (Homo sapiens) (UniProt O60674)", "inhibition", -0.22],
  ["Fc1ccc(-c2ncn(C3CCNCC3)c2-c2ccnc(Oc3ccc(F)c(F)c3)n2)cc1", "Tyrosine-protein kinase JAK2 (Homo sapiens) (UniProt O60674)", "inhibition", 0.69]
]}

Here is the next item to consider.
compound COc1ccc2ncn(-c3cc(O[C@H](C)c4ccccc4Cl)c(C(N)=O)s3)c2c1 , inhibition observed: 1.04

====

Parameter inhibition: see the listing below.
target: High affinity nerve growth factor receptor (Homo sapiens) (UniProt P04629); conditions: at 1 µM;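 further: each value is the mean percent inhibition of TRKA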
Sequence (P04629 33-796 limits assumed): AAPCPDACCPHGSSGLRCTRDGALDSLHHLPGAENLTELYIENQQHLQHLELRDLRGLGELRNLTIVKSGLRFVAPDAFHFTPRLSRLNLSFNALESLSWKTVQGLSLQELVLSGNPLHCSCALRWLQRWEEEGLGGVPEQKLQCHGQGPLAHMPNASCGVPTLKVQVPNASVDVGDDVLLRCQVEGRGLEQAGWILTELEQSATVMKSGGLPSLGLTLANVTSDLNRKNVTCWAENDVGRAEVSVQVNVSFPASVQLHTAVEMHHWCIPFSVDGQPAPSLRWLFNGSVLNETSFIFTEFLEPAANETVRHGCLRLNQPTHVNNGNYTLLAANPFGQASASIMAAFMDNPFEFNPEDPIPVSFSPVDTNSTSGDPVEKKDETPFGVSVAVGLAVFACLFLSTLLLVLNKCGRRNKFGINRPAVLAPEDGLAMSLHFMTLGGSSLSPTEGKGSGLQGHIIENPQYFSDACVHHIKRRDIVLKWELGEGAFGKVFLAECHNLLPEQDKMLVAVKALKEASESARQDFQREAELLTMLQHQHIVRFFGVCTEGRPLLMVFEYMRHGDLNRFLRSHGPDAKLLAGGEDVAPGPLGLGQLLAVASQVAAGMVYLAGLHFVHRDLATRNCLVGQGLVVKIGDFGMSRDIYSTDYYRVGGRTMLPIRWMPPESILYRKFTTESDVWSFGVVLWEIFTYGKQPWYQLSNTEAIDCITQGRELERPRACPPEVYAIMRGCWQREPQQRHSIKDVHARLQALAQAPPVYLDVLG
Express it in %; write the number only.

{"columns": ["structure-smiles-string", "measured-result"],
 "data": [
  ["COc1cc(Nc2ncc3c(C)nc(-c4cccc(C(F)(F)F)c4)n3n2)cc(OC)c1OC", 7.83],
  ["NC(=O)c1cc(-c2ccc(F)cc2)cc(-c2ccncc2)c1N", -0.4],
  ["CCS(=O)(=O)c1ccc(OC)c(Nc2ncc(-c3cccc(-c4ccccc4F)c3)o2)c1", 26],
  ["CN(c1ccc(NC(=O)Nc2c(Cl)cccc2Cl)cc1)c1ccnc(Nc2cccc(CS(C)(=O)=O)c2)n1", 68.7],
  ["C#Cc1cccc(Nc2ncnc3ccc(OCCCCNCCS(C)(=O)=O)cc23)c1", 1.9],
  ["O=C(NCC1CC1)c1ccc(-c2cccc(C(=O)NC3CC3)c2)cc1", 0.79],
  ["CCc1ccc(Oc2nccc(-c3c(-c4ccc(F)cc4)ncn3C3CCNCC3)n2)cc1", 3.03],
  ["COc1ccc2cc(-c3c(-c4ccncc4)nc(-c4ccc(S(C)(=O)=O)cc4C)n3C)ccc2c1", 0.55],
  ["COc1cccc(-n2cnc3c(N/N=C/c4ccncc4)ncnc32)c1", 7.04]
]}

Here is the next item to consider.
molecule O=C(Nc1ccc(Oc2ccc3[nH]c(NC(=O)c4ccccc4)nc3c2)cc1)Nc1cc(C(F)(F)F)ccc1F , inhibition observed: 52.2

====

molecular target: Tyrosine-protein kinase Blk (Homo sapiens); details: at 0.1 µM;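 further: reported value is the mean percent inhibition of BLK kinase activity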
Parameter inhibition: see the listing below.
Express it in %; write the number only.

As a guide, the following entries are already answered.
{"columns": ["structure-smiles-string", "target-system", "measured-result"],
 "data": [
  ["O=C1NC(=O)C(c2cccc(Cl)c2)=C1Nc1ccc(Cl)c(C(=O)O)c1", "Tyrosine-protein kinase Blk (Homo sapiens)", 2.33],
  ["CCc1ccc(Oc2nccc(-c3c(-c4ccc(F)cc4)ncn3C3CCNCC3)n2)cc1", "Tyrosine-protein kinase Blk (Homo sapiens)", 2.31],
  ["O=C1Nc2ccc(I)cc2C1=Cc1cc(Br)c(O)c(Br)c1", "Tyrosine-protein kinase Blk (Homo sapiens)", 1.48],
  ["NS(=O)(=O)c1ccc(N/N=C2\\C(=O)Nc3ccc(C(=O)NCCCn4ccnc4)cc32)cc1", "Tyrosine-protein kinase Blk (Homo sapiens)", 2.75]
]}

Here is the next item to consider.
compound COc1cc(N2CCN(C(C)C)CC2)ccc1Nc1nc(Nc2ccc(F)cc2C(=O)NC[C@@H](O)CO)c2cc[nH]c2n1 , inhibition observed: -1.34

====

tested on: Proto-oncogene tyrosine-protein kinase receptor Ret (Homo sapiens), P07949 [Y791F]; conditions: at 0.1 µM
Sequence (P07949 whole entry Y791F): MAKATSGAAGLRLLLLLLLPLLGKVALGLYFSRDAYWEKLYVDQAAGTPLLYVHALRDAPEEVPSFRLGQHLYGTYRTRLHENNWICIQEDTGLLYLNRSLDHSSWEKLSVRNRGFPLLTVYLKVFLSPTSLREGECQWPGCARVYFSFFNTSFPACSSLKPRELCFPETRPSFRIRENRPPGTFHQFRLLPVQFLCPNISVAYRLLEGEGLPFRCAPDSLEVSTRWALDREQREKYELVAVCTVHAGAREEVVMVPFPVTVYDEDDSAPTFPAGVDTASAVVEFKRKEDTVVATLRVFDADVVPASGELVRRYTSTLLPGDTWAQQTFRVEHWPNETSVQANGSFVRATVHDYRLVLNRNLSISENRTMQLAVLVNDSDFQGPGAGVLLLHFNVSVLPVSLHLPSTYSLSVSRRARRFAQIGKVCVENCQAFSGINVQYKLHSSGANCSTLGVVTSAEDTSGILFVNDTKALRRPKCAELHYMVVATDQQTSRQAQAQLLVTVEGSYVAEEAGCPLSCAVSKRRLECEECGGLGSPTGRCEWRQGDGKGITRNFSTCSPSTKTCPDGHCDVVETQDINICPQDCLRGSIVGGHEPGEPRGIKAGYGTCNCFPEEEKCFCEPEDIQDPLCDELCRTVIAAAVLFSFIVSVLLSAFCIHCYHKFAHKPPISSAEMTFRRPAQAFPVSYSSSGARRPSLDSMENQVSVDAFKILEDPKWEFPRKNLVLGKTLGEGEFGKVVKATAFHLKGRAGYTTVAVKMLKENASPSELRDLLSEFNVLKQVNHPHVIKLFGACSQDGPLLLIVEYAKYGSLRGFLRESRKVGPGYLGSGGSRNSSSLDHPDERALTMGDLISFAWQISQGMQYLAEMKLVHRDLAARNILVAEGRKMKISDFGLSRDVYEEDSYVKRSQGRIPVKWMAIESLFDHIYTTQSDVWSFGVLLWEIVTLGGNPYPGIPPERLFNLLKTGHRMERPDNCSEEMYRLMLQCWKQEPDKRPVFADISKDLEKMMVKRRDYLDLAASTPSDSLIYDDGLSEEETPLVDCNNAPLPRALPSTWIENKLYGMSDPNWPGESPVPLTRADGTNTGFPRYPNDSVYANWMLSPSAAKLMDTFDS
Note to self: values exactly at 5% are y. So inhibition at or above 5% is y, below is n.

Worked examples, 6 molecules total:
{"columns": ["molecule", "category-label"],
 "data": [
  ["Fc1ccc(-c2ncn(CCCN3CCOCC3)c2-c2ccncc2)cc1", "n"],
  ["CCc1ccc(Oc2nccc(-c3c(-c4ccc(F)cc4)ncn3C3CCNCC3)n2)cc1", "n"],
  ["Nc1nccc(-c2c(-c3ccc(F)cc3)ncn2C2CCC(O)CC2)n1 (stereo not given)", "n"],
  ["O=C(Nc1ccc(Oc2ccc3[nH]c(NC(=O)c4ccccc4)nc3c2)cc1)Nc1cc(C(F)(F)F)ccc1F", "y"],
  ["Fc1ccc(-c2nc3n(c2-c2ccncc2)CCS3)cc1", "y"],
  ["COc1cc2ncn(-c3cc(OCc4cccs4)c(C(N)=O)s3)c2cc1OC", "y"]
]}

Req: Test whether the molecule NC(=O)c1cc(-c2ccc(F)cc2)cc(-c2ccncc2)c1N records inhibition of 5% or higher.
Resp: n

Req: Test whether the molecule O=C(NCC1CC1)c1ccc(-c2cccc(C(=O)NC3CC3)c2)cc1 records inhibition of 5% or higher.
Resp: y

Req: Test whether the molecule C#Cc1cccc(Nc2ncnc3ccc(OCCCCNCCS(C)(=O)=O)cc23)c1 records inhibition of 5% or higher.
Resp: y

Req: Test whether the molecule C[C@@H](Oc1cc(-n2cnc3ccc(OC4CCN(C)CC4)cc32)sc1C(N)=O)c1ccccc1Cl records inhibition of 5% or higher.
Resp: y

====

Parameter inhibition: see the listing below.
target: Cyclin-dependent kinase 1 (Homo sapiens) (UniProt P06493); details: at 0.1 µM;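 further: enzyme assay on the CDK1/cyclin B complex, reported as mean percent inhibition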
Sequence (P06493 whole entry, looked up): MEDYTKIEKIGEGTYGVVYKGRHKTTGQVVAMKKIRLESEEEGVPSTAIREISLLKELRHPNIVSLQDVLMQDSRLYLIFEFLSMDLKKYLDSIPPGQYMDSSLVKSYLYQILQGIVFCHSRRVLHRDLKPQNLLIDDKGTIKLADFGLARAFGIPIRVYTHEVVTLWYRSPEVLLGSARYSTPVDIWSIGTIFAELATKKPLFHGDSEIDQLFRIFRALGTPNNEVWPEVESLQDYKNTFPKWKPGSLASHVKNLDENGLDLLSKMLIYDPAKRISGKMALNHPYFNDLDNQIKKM
Express it in %; write the number only.

As a guide, the following entries are already answered.
{"columns": ["compound", "unit-of-measure", "inhibition"],
 "data": [
  ["COc1ccc2cc(-c3c(-c4ccncc4)nc(-c4ccc([S+](C)[O-])cc4C)n3C)ccc2c1 (stereo not given)", "%", 0.98],
  ["CCN(CC)Cc1ccc(Nc2nccc(-c3cnn4ncccc34)n2)cc1", "%", 36.3],
  ["Cc1nnc(-c2ccc(C)c(-c3ccc(C(=O)NCc4ccc(Cl)cc4)cc3)c2)o1", "%", -3.13],
  ["CCc1ccc(Oc2nccc(-c3c(-c4ccc(F)cc4)ncn3C3CCNCC3)n2)cc1", "%", 2.36]
]}

Here is the next item to consider.
compound O=C(Nc1ccc(Oc2ccc3[nH]c(NC(=O)c4ccccc4)nc3c2)cc1)Nc1cc(C(F)(F)F)ccc1F , inhibition observed: 0.28

====

molecular target: Death-associated protein kinase 1 (Homo sapiens); conditions: at 0.1 µM;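 further: reported figure is the mean inhibition of DAPK1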
measure: inhibition (%)
Express it in %; write the number only.

As a guide, the following entries are already answered.
{"columns": ["structure-smiles-string", "measure", "measured-result"],
 "data": [
  ["Cc1ccc(C(=O)NC(C)C)cc1-c1ccc(C(=O)NCC2CC2)cc1", "inhibition", -2.08],
  ["CCc1ccc(Oc2nccc(-c3c(-c4ccc(F)cc4)ncn3C3CCNCC3)n2)cc1", "inhibition", 4.58],
  ["COc1cc(C)c(N(C)C(=O)CN(C)C)cc1Nc1nc(Nc2cccc(F)c2C(N)=O)c2cc[nH]c2n1", "inhibition", 0.19],
  ["COc1cc(Nc2ncc(-c3ccccc3)o2)cc(OC)c1OC", "inhibition", 1.78]
]}

Here is the next item to consider.
molecule NS(=O)(=O)c1ccc(Nc2cc(-c3ccc(O)c(F)c3)n[nH]2)cc1 , inhibition observed: -2.1
